From: PubChem BioAssay (NCI)

Catalogue of TGI readings, one per entry.
Tested on: K-562 leukemia
Assay: NCI tumour cell line growth inhibition, 48 h

Examples with answers:
[
  {
    "COMPOUND": "CC(=O)OCC12CCC3C4(C)CCCC(C)(C)C4CCC3(C)C1CC(C1=CC(=O)OC1O)O2 (stereo not given)",
    "RESULT": "4.72 µM"
  },
  {
    "COMPOUND": "CCOC(=O)N1C(c2ccccc2)C=CC(c2ccccc2)N1C(=O)OCC (stereo not given)",
    "RESULT": "> 100 µM"
  },
  {
    "COMPOUND": "O=C1c2ccccc2-c2c1c1ccc([N+](=O)[O-])cc1c(=O)n2CCCNCCO",
    "RESULT": "1.24 µM"
  },
  {
    "COMPOUND": "COc1c2ccsc2c(OC)c2ccsc12",
    "RESULT": "> 100 µM"
  },
  {
    "COMPOUND": "CCCCn1c2ccccc2c2ccc3c(c21)C(=O)C=CC3=O",
    "RESULT": "> 100 µM"
  }
]

// output TGI; input "O=S(=O)(NC1=NCCN1C(=S)SN1CCn2c1nsc2=S)c1ccccc1Cl" ; system K-562 leukemia
46.3 µM

Fill: TGI (K-562 leukemia) for this compound "Cc1ccccc1C(=O)Oc1ccc(OCc2ccccc2)cc1"
> 100 µM

Under K-562 leukemia, report TGI for COc1cc2c(cc1OC)[C@@](C)(C(O)C(O)C(C)(C)O)NCC2 (stereo not given in full)
> 100 µM

Given "Nc1c(C(=O)N/N=C/c2ccc(-c3cc(Cl)c(Cl)cc3Cl)o2)cnn1-c1ccnc2c(C(F)(F)F)cccc12" , report its TGI on K-562 leukemia.
> 100 µM

Fill in TGI for "COc1ccc2c(CCNC(=O)/C=C/c3ccccc3)c(C(C)=O)[nH]c2c1[N+](=O)[O-]" tested with K-562 leukemia.
> 100 µM

---

Test system: K-562 leukemia
Assay: NCI tumour cell line growth inhibition, 48 h
RECORDED_ENDPOINT: TGI

[
  {
    "COMPOUND": "CCCCCN(CCCCC)CC(C)(C)C(O)c1ccc(OC)c2ccccc12 (stereo not given)",
    "TGI": "25 µM"
  },
  {
    "COMPOUND": "N#Cc1ccc(Oc2cccc(Oc3ccccc3)c2)cc1C#N",
    "TGI": "> 100 µM"
  }
]

Lab note: record TGI of COC12C=CC(C=C1C#N)CC2 (stereo not given) (tested in a mixture with another compound) tested on K-562 leukemia.
> 100 µM

Report TGI from K-562 leukemia testing of "O=C(CCSc1ccnc2c(C(F)(F)F)cccc12)N/N=C/c1cc(Cl)c(Cl)cc1Cl"
> 100 µM

Fill in: TGI on K-562 leukemia, entry "Nc1ccc(C(OC(=O)c2cc3ccccc3c(Cc3c(O)c(C(=O)OC(c4ccc(N)cc4)(c4ccc(N)cc4)c4ccc(N)cc4)cc4ccccc34)c2O)(c2ccc(N)cc2)c2ccc(N)cc2)cc1"
> 100 µM

---

Overview of reported TGI across a group of molecules:
Tested on: HCT-116 colon
Assay: NCI tumour cell line growth inhibition, 48 h
The answer is to be given in µM; state only the numeric part.

Use the examples below as a reference point.
[
  {
    "MOLECULE": "CCN(CC)c1ccc(N=C2C=C(Cl)C(=O)c3ncccc32)c(C)c1",
    "TGI, µM": 11.6
  },
  {
    "MOLECULE": "CCOc1ccc(/C=C2\\NC(=S)N(/C=C3\\C(=O)Oc4ccccc4C3=O)C2=O)cc1",
    "TGI, µM": 39.9
  },
  {
    "MOLECULE": "COc1ccc(-c2cc(-c3cccc(NS(C)(=O)=O)c3)nc(N)c2C#N)cc1",
    "TGI, µM": 8.73
  }
]

Give the measured TGI for "COc1cc2c3c(n(CCCBr)c(=O)c2cc1OC)-c1ccc(F)cc1C3=O"
30.6

Provide TGI value for the following molecule: NC(CC(O)(c1ccccc1)c1ccccc1)c1ccccc1S (centres undefined)
26.2

Consider the molecule "Cc1ccc(Nc2cc(C)nc(NCCCNc3ccnc4cc(Cl)ccc34)n2)cc1" . State its measured TGI.
2.81

# return recorded TGI for input O=C1CS(=O)(=O)C(c2cccc(Oc3ccccc3)c2)N1c1ccccc1 (centres undefined)
30.8

---

Tested on: SNB-19 CNS
Test: NCI tumour cell line growth inhibition, 48 h
RECORDED_ENDPOINT: TGI

[
  {
    "MOLECULE": "N=c1oc2ccccc2cc1-c1nc2ccccc2c(=O)[nH]1",
    "TARGET_DESC": "SNB-19 CNS",
    "RESULT": "> 100 µM"
  },
  {
    "MOLECULE": "CN(CC(=O)O)Cc1oc(CO)cc(=O)c1O",
    "TARGET_DESC": "SNB-19 CNS",
    "RESULT": "> 100 µM"
  },
  {
    "MOLECULE": "O=C(N/C(=C\\c1ccc(/C=C(\\NC(=O)c2ccccc2)c2nc3ccccc3s2)cc1)c1nc2ccccc2s1)c1ccccc1",
    "TARGET_DESC": "SNB-19 CNS",
    "RESULT": "14.5 µM"
  },
  {
    "MOLECULE": "CC1(C(=O)O)CCOc2ccccc21 (stereo unspecified)",
    "TARGET_DESC": "SNB-19 CNS",
    "RESULT": "> 100 µM"
  }
]

Field: next molecule
For the molecule "N#C/C(=C\c1c(-c2ccccc2)[nH]c2ccccc12)C(=O)c1ccccc1" , give its measured TGI value.
> 100 µM

---

Test system: LOX IMVI melanoma
Assay: NCI tumour cell line growth inhibition, 48 h
RECORDED_ENDPOINT: TGI (µM)
Respond numerically; units are µM and should not be typed.

[
  {
    "COMPOUND_SMILES": "CC(C)(C)OC(=O)N1[C@@H]2Cc3ccc(N)cc3[C@@]1(C)c1ccccc12",
    "TGI (µM)": 62.1
  }
]

Identify measured TGI corresponding to "O=C(N/N=C/c1ccc(Cl)cc1Cl)c1ccc2nc(-c3ccc(Cl)cc3)[nH]c2c1"
2.94

Supply measured TGI of "CC(=O)[O-].[Zn].c1ccc(/C(=N\Nc2ccccn2)c2ccccn2)cc1" in your reply.
1.59

---

Test system: SK-MEL-2 melanoma
Test: NCI tumour cell line growth inhibition, 48 h
RECORDED_ENDPOINT: TGI (µM)
Report as a plain number; the unit µM is understood.

[
  {
    "COMPOUND": "Cc1c(O)c(OC2OC(CO)C(O)C(O)C2O)cc2c1C=C[C@@H]1[C@@]2(C)C(=O)C[C@]2(C)[C@@H]([C@@](C)(O)C(=O)CCC(C)(C)O)[C@H](O)C[C@@]12C (some centres undefined)",
    "U": "µM",
    "TGI": 68.7
  }
]

# return recorded TGI for input NC(CC(O)(c1ccccc1)c1ccccc1)c1ccccc1S (centres undefined)
33.2

// Input: "O=[N+]([O-])c1ccc(O)c(/C=N/c2nc(-c3ccccc3)cs2)c1" . Output its TGI only.
70.5

Input CC(=O)OC1CCC2C(=CCC3C2(C)C(=O)CC2(C)C(C4(C)OC(C(C)C)=CC4=O)C(O)CC32C)C1(C)C (centres undefined) , output reported TGI.
62.3

Quote TGI reported for "COc1cc(F)c(/C=C/c2cc(/C=C/c3cc(OC)c(OC)cc3F)n(-c3cc(F)cc(F)c3)n2)cc1OC" please.
10.3

---

Test system: K-562 leukemia
Assay: NCI tumour cell line growth inhibition, 48 h
RECORDED_ENDPOINT: GI50

[
  {
    "COMPOUND": "N#Cc1nc2c(S(=O)(=O)c3ccccc3)c(N)n(Cc3ccc(Cl)cc3)c2nc1C#N",
    "TARGET_DESC": "K-562 leukemia",
    "RECORDED_ENDPOINT": "GI50",
    "RESULT": "> 50 µM"
  },
  {
    "COMPOUND": "CSc1ccc(SC2c3ccc(C)cc3Oc3nc(N)c(C#N)c(N)c32)cc1 (centres undefined)",
    "TARGET_DESC": "K-562 leukemia",
    "RECORDED_ENDPOINT": "GI50",
    "RESULT": "2.96 µM"
  },
  {
    "COMPOUND": "N#C/C(=C\\c1c(-c2ccccc2)[nH]c2ccccc12)C(=O)c1ccccc1",
    "TARGET_DESC": "K-562 leukemia",
    "RECORDED_ENDPOINT": "GI50",
    "RESULT": "> 100 µM"
  },
  {
    "COMPOUND": "COc1cccc(CCC(=O)c2cc3c(N)c(C(=O)Nc4cccc(Cl)c4C)sc3nc2C)c1",
    "TARGET_DESC": "K-562 leukemia",
    "RECORDED_ENDPOINT": "GI50",
    "RESULT": "0.396 µM"
  },
  {
    "COMPOUND": "C=C1C(OC/C=C/COC2O[C@@H]3O[C@@]4(C)CC[C@H]5[C@H](C)CC[C@@H](C2=C)[C@@]35OO4)O[C@@H]2O[C@@]3(C)CC[C@H]4[C@H](C)CC[C@@H]1[C@@]24OO3 (some centres undefined)",
    "TARGET_DESC": "K-562 leukemia",
    "RECORDED_ENDPOINT": "GI50",
    "RESULT": "0.0949 µM"
  },
  {
    "COMPOUND": "COc1ccc(-c2ccc(-c3ccc(C(=N)N)cn3)o2)cc1Cl",
    "TARGET_DESC": "K-562 leukemia",
    "RECORDED_ENDPOINT": "GI50",
    "RESULT": "2.7 µM"
  },
  {
    "COMPOUND": "COc1ccc(-c2cc(-c3cccc(NS(C)(=O)=O)c3)nc(N)c2C#N)cc1",
    "TARGET_DESC": "K-562 leukemia",
    "RECORDED_ENDPOINT": "GI50",
    "RESULT": "0.0541 µM"
  },
  {
    "COMPOUND": "COc1cc(NC(=O)NCc2ccco2)ccc1-c1ccc(NC(=O)NCc2ccco2)cc1OC",
    "TARGET_DESC": "K-562 leukemia",
    "RECORDED_ENDPOINT": "GI50",
    "RESULT": "0.773 µM"
  }
]

# next compound below
Please look at "CC(C)C[C@H](NC(=O)CCn1ccc2ncccc2c1=O)B(O)O" and tell me its recorded GI50 on K-562 leukemia.
13.2 µM
